Kindly state pIC50 for each of the entries shown.
system: PC-3; assay: Antiproliferative activity against human PC3 cells expressing PCDNA after 72 hrs by MTT assay; assay type: functional, cell-based; details: PC-3, 72 h
pIC50: −log10 of the molar value.

These solved cases illustrate the format of a correct answer.
Smiles Notation: CS(=O)(=O)c1ccc(C2=C(c3ccccc3Cl)C(=O)O/C2=C\c2ccc(F)cc2)cc1
Readout Type: pIC50
Result: < 4.30
--
Smiles Notation: CC(C)=C1OC(=O)C(c2ccccc2Cl)=C1c1ccc(S(C)(=O)=O)cc1
Readout Type: pIC50
Result: 4.39
--
Smiles Notation: CS(=O)(=O)c1ccc(C2=C(c3ccccc3Cl)C(=O)O/C2=C\c2ccco2)cc1
Readout Type: pIC50
Result: < 4.30

Read the next record carefully.
*Q* Kindly indicate its recorded pIC50. Item: CS(=O)(=O)c1ccc(C2=C(c3ccccc3Cl)C(=O)O/C2=C\c2ccc(Br)cc2)cc1
*A* < 4.30

----------
system: PC-3; assay: Antiproliferative activity against human PC3 cells expressing PCDNA after 72 hrs by MTT assay; assay type: functional, cell-based; conditions: PC-3, 72 h
Readout Type: IC50 (µM)
Numbers only, in µM.

Please give IC50 for each item listed below.
1. COc1ccccc1/C=C1\OC(=O)C(c2ccccc2Cl)=C1c1ccc(S(C)(=O)=O)cc1
2. O=c1[nH]cc(F)c(=O)[nH]1 [FLUOROURACIL]

*A*
25.5
31.4

----------
system: PC-3; assay: Antiproliferative activity against human PC3 cells expressing PCDNA after 72 hrs by MTT assay; format: functional, cell-based; details: PC-3, 72 h
pIC50: −log10 of the molar value.
Readout Type: pIC50

These solved cases illustrate the format of a correct answer.
Compound: CS(=O)(=O)c1ccc(C2=C(c3ccccc3Cl)C(=O)O/C2=C\c2cccc([N+](=O)[O-])c2)cc1
pIC50: < 4.30

Compound: CS(=O)(=O)c1ccc(C2=C(c3ccccc3)C(=O)OC2)cc1 [ROFECOXIB]
pIC50: < 4.30

*Q* Kindly indicate its recorded pIC50. Item: CS(=O)(=O)c1ccc(C2=C(c3ccc(F)cc3)C(=O)O/C2=C\c2ccccc2)cc1
*A* < 4.30

Provenance of the data: ChEMBL document CHEMBL2401696
